# Tested on: NCI-H1915
# METHOD: relative viability (nuclei count vs DMSO), 5 days (fraction); higher = more cells survive
# CONDITION_DESCRIPTION: first compound 2 µM
Entries and their relative viability values follow.
Output: the number by itself.

INSERT INTO results (molecule, assay_readout, reported_measurement) VALUES
  ('CN1CCN(CCOc2cc(OC3CCOCC3)c3c(Nc4c(Cl)ccc5c4OCO5)ncnc3c2)CC1 [Saracatinib] + CS(=O)(=O)CCNCc1ccc(-c2ccc3ncnc(Nc4ccc(OCc5cccc(F)c5)c(Cl)c4)c3c2)o1 [Lapatinib] (partner 2 µM)', 'relative viability', 0.819),
  ('Cc1csc(=NC2CCCCC2)n1/N=C/c1ccc(O)c(O)c1O [MIM1] + Cc1cc(Nc2cc(N3CCN(C)CC3)nc(Sc3ccc(NC(=O)C4CC4)cc3)n2)n[nH]1 [Tozasertib] (partner 0.1 µM)', 'relative viability', 0.337);

Turning to the following molecule.
// query Need relative viability of CN1CCN(CCOc2cc(OC3CCOCC3)c3c(Nc4c(Cl)ccc5c4OCO5)ncnc3c2)CC1 [Saracatinib] + Cc1nc(Nc2ncc(C(=O)Nc3c(C)cccc3Cl)s2)cc(N2CCN(CCO)CC2)n1 [Dasatinib] (partner 0.075 µM) , thanks.
// result 0.322

====

# System: SK-LU-1
# METHOD: relative viability (nuclei count vs DMSO), 5 days (fraction); higher = more cells survive
# CONDITION_DESCRIPTION: first compound 20 µM
ASSAY_READOUT: relative viability
Output: the number by itself.

// query Need relative viability of Cc1csc(=NC2CCCCC2)n1/N=C/c1ccc(O)c(O)c1O [MIM1] + N=C(N)NC(=N)NCCc1ccccc1 [Phenformin] (partner 250 µM) , thanks.
// result 0.393

====

# Test system: NCI-H1563
# METHOD: relative viability (nuclei count vs DMSO), 5 days (fraction); higher = more cells survive
# CONDITION_DESCRIPTION: first compound 0.2 µM
Entries and their relative viability values follow.
Output: the number by itself.

Known relative viability results, listed for orientation:
INSERT INTO results (compound, study_target, reported_measurement) VALUES
  ('Cc1csc(=NC2CCCCC2)n1/N=C/c1ccc(O)c(O)c1O [MIM1] + CS(=O)(=O)N1CCN(Cc2cc3nc(-c4cccc5[nH]ncc45)nc(N4CCOCC4)c3s2)CC1 [Pictilisib] (partner 1 µM)', 'NCI-H1563', 0.628),
  ('CCNC(=O)c1noc(-c2cc(C(C)C)c(O)cc2O)c1-c1ccc(CN2CCOCC2)cc1 [Luminespib] + CS(=O)(=O)CCNCc1ccc(-c2ccc3ncnc(Nc4ccc(OCc5cccc(F)c5)c(Cl)c4)c3c2)o1 [Lapatinib] (partner 2 µM)', 'NCI-H1563', 0.528);

// query Need relative viability of CCNC(=O)c1noc(-c2cc(C(C)C)c(O)cc2O)c1-c1ccc(CN2CCOCC2)cc1 [Luminespib] + C[C@]1(O)C[C@@H](c2nc(-c3ccc4ccc(-c5ccccc5)nc4c3)c3c(N)nccn32)C1 [Linsitinib] (partner 1 µM) , thanks.
// result 0.542

====

# Tested on: NCI-H1975
# METHOD: relative viability (nuclei count vs DMSO), 5 days (fraction); higher = more cells survive
# CONDITION_DESCRIPTION: first compound 0.03162 µM
ASSAY_READOUT: relative viability

// query Need relative viability of Cc1cn(-c2cc(NC(=O)c3ccc(C)c(Nc4nccc(-c5cccnc5)n4)c3)cc(C(F)(F)F)c2)cn1 [Nilotinib] + COc1cc2c(Oc3ccc(NC(=O)C4(C(=O)Nc5ccc(F)cc5)CC4)cc3F)ccnc2cc1OCCCN1CCOCC1 [Foretinib] (partner 0.25 µM) , thanks.
// result 0.74

// query Ok, now Cc1cn(-c2cc(NC(=O)c3ccc(C)c(Nc4nccc(-c5cccnc5)n4)c3)cc(C(F)(F)F)c2)cn1 [Nilotinib] + CC1(C)CCC(c2ccc(Cl)cc2)=C(CN2CCN(c3ccc(C(=O)NS(=O)(=O)c4ccc(N[C@H](CCN5CCOCC5)CSc5ccccc5)c(S(=O)(=O)C(F)(F)F)c4)cc3)CC2)C1 [Navitoclax] (partner 0.5 µM)
// result 0.694

// query Ok, now Cc1cn(-c2cc(NC(=O)c3ccc(C)c(Nc4nccc(-c5cccnc5)n4)c3)cc(C(F)(F)F)c2)cn1 [Nilotinib] + COc1cccc2cc(-c3nc([C@H]4CC[C@H](C(=O)O)CC4)n4ncnc(N)c34)[nH]c12 [OSI-027] (partner 0.5 µM)
// result 0.409

====

# Tested on: NCI-H2023
# METHOD: relative viability (nuclei count vs DMSO), 5 days (fraction); higher = more cells survive
# CONDITION_DESCRIPTION: first compound 2 µM
Entries and their relative viability values follow.

Known relative viability results, listed for orientation:
INSERT INTO results (compound, assay_readout, reported_measurement) VALUES
  ('CN1CCN(CCOc2cc(OC3CCOCC3)c3c(Nc4c(Cl)ccc5c4OCO5)ncnc3c2)CC1 [Saracatinib] + Cc1cc(Nc2cc(N3CCN(C)CC3)nc(Sc3ccc(NC(=O)C4CC4)cc3)n2)n[nH]1 [Tozasertib] (partner 0.1 µM)', 'relative viability', 0.262),
  ('Cc1csc(=NC2CCCCC2)n1/N=C/c1ccc(O)c(O)c1O [MIM1] + N=C(N)NC(=N)NCCc1ccccc1 [Phenformin] (partner 250 µM)', 'relative viability', 0.294),
  ('CN1CCN(CCOc2cc(OC3CCOCC3)c3c(Nc4c(Cl)ccc5c4OCO5)ncnc3c2)CC1 [Saracatinib] + CCNC(=O)c1noc(-c2cc(C(C)C)c(O)cc2O)c1-c1ccc(CN2CCOCC2)cc1 [Luminespib] (partner 0.01 µM)', 'relative viability', 0.471),
  ('Cc1csc(=NC2CCCCC2)n1/N=C/c1ccc(O)c(O)c1O [MIM1] + COc1cccc2cc(-c3nc([C@H]4CC[C@H](C(=O)O)CC4)n4ncnc(N)c34)[nH]c12 [OSI-027] (partner 0.5 µM)', 'relative viability', 0.305),
  ('Cc1csc(=NC2CCCCC2)n1/N=C/c1ccc(O)c(O)c1O [MIM1] + CCNC(=O)c1noc(-c2cc(C(C)C)c(O)cc2O)c1-c1ccc(CN2CCOCC2)cc1 [Luminespib] (partner 0.01 µM)', 'relative viability', 0.646),
  ('Cc1csc(=NC2CCCCC2)n1/N=C/c1ccc(O)c(O)c1O [MIM1] + CC(C)C[C@H](NC(=O)[C@H](Cc1ccccc1)NC(=O)c1cnccn1)B(O)O [Bortezomib] (partner 0.002 µM)', 'relative viability', 0.765);

// query Need relative viability of CN1CCN(CCOc2cc(OC3CCOCC3)c3c(Nc4c(Cl)ccc5c4OCO5)ncnc3c2)CC1 [Saracatinib] + Cc1nc(NC(=O)N2CCC[C@H]2C(N)=O)sc1-c1ccnc(C(C)(C)C(F)(F)F)c1 [Alpelisib] (partner 2 µM) , thanks.
// result 0.364

// query Ok, now Cc1csc(=NC2CCCCC2)n1/N=C/c1ccc(O)c(O)c1O [MIM1] + C[C@@H](Oc1cc(-c2cnn(C3CCNCC3)c2)cnc1N)c1c(Cl)ccc(F)c1Cl [Crizotinib] (partner 1 µM)
// result 0.573

// query Ok, now Cc1csc(=NC2CCCCC2)n1/N=C/c1ccc(O)c(O)c1O [MIM1] + CS(=O)(=O)CCNCc1ccc(-c2ccc3ncnc(Nc4ccc(OCc5cccc(F)c5)c(Cl)c4)c3c2)o1 [Lapatinib] (partner 2 µM)
// result 0.683

====

Entries and their relative viability values follow.
# Test system: NCI-H2087
# METHOD: relative viability (nuclei count vs DMSO), 5 days (fraction); higher = more cells survive
# CONDITION_DESCRIPTION: first compound 0.2 µM
Output: the number by itself.

Known relative viability results, listed for orientation:
INSERT INTO results (compound, assay_readout, reported_measurement) VALUES
  ('Cc1csc(=NC2CCCCC2)n1/N=C/c1ccc(O)c(O)c1O [MIM1] + O=C(c1cc(Cc2n[nH]c(=O)c3ccccc23)ccc1F)N1CCN(C(=O)C2CC2)CC1 [Olaparib] (partner 8 µM)', 'relative viability', 0.535),
  ('CCNC(=O)c1noc(-c2cc(C(C)C)c(O)cc2O)c1-c1ccc(CN2CCOCC2)cc1 [Luminespib] + NC(=O)Nc1cc(-c2cccc(F)c2)sc1C(=O)N[C@H]1CCCNC1 [AZD7762] (partner 0.2 µM)', 'relative viability', 0.117),
  ('CCNC(=O)c1noc(-c2cc(C(C)C)c(O)cc2O)c1-c1ccc(CN2CCOCC2)cc1 [Luminespib] + C[C@]1(O)C[C@@H](c2nc(-c3ccc4ccc(-c5ccccc5)nc4c3)c3c(N)nccn32)C1 [Linsitinib] (partner 1 µM)', 'relative viability', 0.204),
  ('Cc1csc(=NC2CCCCC2)n1/N=C/c1ccc(O)c(O)c1O [MIM1] + Cc1cc(Nc2cc(N3CCN(C)CC3)nc(Sc3ccc(NC(=O)C4CC4)cc3)n2)n[nH]1 [Tozasertib] (partner 0.1 µM)', 'relative viability', 0.26);

Turning to the following compound.
// query Need relative viability of CCNC(=O)c1noc(-c2cc(C(C)C)c(O)cc2O)c1-c1ccc(CN2CCOCC2)cc1 [Luminespib] + N=C(N)NC(=N)NCCc1ccccc1 [Phenformin] (partner 250 µM) , thanks.
// result 0.115
